# run-description: human plasma pharmacokinetics of orally administered tyramine
# Format: in vivo
# condition-label: human plasma; tyramine with food in a capsule, oral dose of 200 mg; read-out: Tmax
quantity-name: Tmax

## Task I'd like to know its Tmax. The compound in question is NCCc1ccc(O)cc1 [tyramine]
## Result ≤ 1.25 h

Every entry's value here was drawn from patent US20120003303A1.
